Ref: PubChem BioAssay AID720582

Target: Disintegrin and metalloproteinase domain-containing protein 10 (Homo sapiens) (UniProt O14672)
Sequence (O14672 214-748 limits assumed): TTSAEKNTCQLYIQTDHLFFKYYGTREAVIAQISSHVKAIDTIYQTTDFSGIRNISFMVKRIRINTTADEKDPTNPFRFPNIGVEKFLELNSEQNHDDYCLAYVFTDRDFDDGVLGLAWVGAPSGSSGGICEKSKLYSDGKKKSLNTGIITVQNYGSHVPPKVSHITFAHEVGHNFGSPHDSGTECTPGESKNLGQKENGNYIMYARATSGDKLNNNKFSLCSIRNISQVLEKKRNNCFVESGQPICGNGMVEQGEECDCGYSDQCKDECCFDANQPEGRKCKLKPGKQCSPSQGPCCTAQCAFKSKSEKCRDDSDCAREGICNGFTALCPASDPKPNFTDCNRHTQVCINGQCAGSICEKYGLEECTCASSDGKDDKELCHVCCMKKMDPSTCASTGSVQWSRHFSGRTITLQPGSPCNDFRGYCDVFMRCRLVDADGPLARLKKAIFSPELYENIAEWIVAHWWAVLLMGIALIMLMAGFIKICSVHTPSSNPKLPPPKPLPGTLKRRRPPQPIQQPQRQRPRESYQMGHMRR
Test: human ADAM10 inhibitors, primary screen, biochemical, QFRET, HTS (AID 720582);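 further: 0% = DMSO wells while the 100% control is not disclosed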
Conditions: recombinant ADAM10, EDANS/DABCYL FRET peptide cleavage, 3 h; at 7 µM; hits give high values
Among all 370,000 compounds or so, about 2,300 (0.62%) were called active. Shown is part of a subset that was picked to be rich in actives.
Readout name: inhibition (%)

Compound: O=c1[nH]c2ccccc2n1C1CCN(C(c2ccnc3ccccc23)c2nnnn2Cc2ccccc2)CC1 (stereo not drawn)
Readout name: inhibition
Measurement: -0.89
--
Compound: O=C(Cn1c(=O)n(CC2CS2)c2ccccc21)N1CCCCC1 (stereo not drawn)
Readout name: inhibition
Measurement: -0.6
--
Compound: COP(=O)(Sc1ccccc1)C(Cc1ccccc1)NC(=O)OCc1ccccc1 (stereo not drawn)
Readout name: inhibition
Measurement: 2.57
--
Compound: COc1ccc(-n2nnnc2C(c2cccc3ccccc23)N2CCC(n3c(=O)[nH]c4ccccc43)CC2)cc1 (stereo not drawn)
Readout name: inhibition
Measurement: 22.7
--
Compound: COC(=O)C1=C(c2cccc(OCc3ccccc3)c2)C[C@@H]2CC[C@H]1N2C(=O)NCc1ccc(Br)cc1
Readout name: inhibition
Measurement: 19.1
--
Compound: CN1CCC(N(C)Cc2cccnc2)CC1
Readout name: inhibition
Measurement: -14.6
--
Compound: COC(=O)C1=C(c2ccc(F)cc2OCc2ccccc2)C[C@@H]2CC[C@H]1N2C(=O)NCc1ccc(Cl)cc1
Readout name: inhibition
Measurement: 17.6
--
Compound: COC(=O)C1=C(c2ccc(-c3ccccc3)c(F)c2)C[C@@H]2CC[C@H]1N2C(=O)NCc1ccc(F)cc1
Readout name: inhibition
Measurement: 28.2
